- measurement protocol: recombinant UMI read abundance after kanamycin selection (control-corrected) (log10(CPM+1)); higher = more efficient recombination; extreme values may be limits of the assay; sequences stand for … in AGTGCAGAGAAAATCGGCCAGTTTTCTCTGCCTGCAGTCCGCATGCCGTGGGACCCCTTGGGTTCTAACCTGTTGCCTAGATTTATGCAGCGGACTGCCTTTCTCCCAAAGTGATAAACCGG…AGGTTGGTTTCACT; site = the 11-nt donor
In this section, each of the sequences is paired with its reported recombinant UMI read abundance (log10).

item sequence: GGCTACACATGGACCGGTTTTCCCGGTAATCCGTATTTGCA (site GGCTACACTTG)
recombinant UMI read abundance (log10): 1.86
//
item sequence: TCGGAATCATGGACCGGTTTTCCCGGTAATCCGTATTTGCG (site TTGGAATCTCG)
recombinant UMI read abundance (log10): 1.03
//
item sequence: TCTGCGGCATGGACCGGTTTTCCCGGTAATCCGTATTTGCT (site TCTGCGGCTAG)
recombinant UMI read abundance (log10): 0.246
//
item sequence: GAATAGTCATGGACCGGTTTTCCCGGTAATCCGTATTTGGG (site GAATAGTCTCC)
recombinant UMI read abundance (log10): 1.13
//
item sequence: TACAGGCCATGGACCGGTTTTCCCGGTAATCCGTATTTGCT (site TACAGGCCTAG)
recombinant UMI read abundance (log10): 0.00356
//
item sequence: AGGCAGACATGGACCGGTTTTCCCGGTAATCCGTATTTGCA (site AGGTAGACTTG)
recombinant UMI read abundance (log10): 0.965
//
item sequence: CGGCATCCATGGACCGGTTTTCCCGGTAATCCGTATTTGGT (site CGGAATCCTAA)
recombinant UMI read abundance (log10): 0
//
item sequence: GATCAGCCATGGACCGGTTTTCCCGGTAATCCGTATTTGGT (site GATCAGCCTAC)
recombinant UMI read abundance (log10): 0.00497
//
item sequence: CTAGTCTCATGGACCGGTTTTCCCGGTAATCCGTATTTGAG (site CTAGTATCTGT)
recombinant UMI read abundance (log10): 0

====

- measurement protocol: recombinant barcode read abundance after kanamycin selection (control-corrected) (log10(CPM+1)); higher = more efficient recombination; sequences stand for … in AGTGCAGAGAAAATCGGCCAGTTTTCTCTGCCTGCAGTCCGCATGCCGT…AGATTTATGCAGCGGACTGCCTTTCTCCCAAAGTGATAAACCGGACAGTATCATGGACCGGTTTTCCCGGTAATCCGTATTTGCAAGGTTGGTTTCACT; site = the 11-nt target
Classify as follows. Reported recombinant barcode read abundance (log10) greater than or equal to 2: Criterion met. Reported recombinant barcode read abundance (log10) below: Criterion not met.

item sequence: GTGTACCCTTGGGTTCTAACCTGTTGCGA (site GTGTACCCTTC)
answer label: Criterion met
//
item sequence: TAGGGGACTTGGGTTCTAACCTGTTGCAA (site TAGGGGACTTT)
answer label: Criterion met
//
item sequence: GCGTGTACTTGGGTTCTAACCTGTTGCCT (site GCGGGTACTAG)
answer label: Criterion not met
//
item sequence: AGTAGGACTTGGGTTCTAACCTGTTGCCT (site CGTAGGACTAG)
answer label: Criterion not met
//
item sequence: TTCGTAGCTTGGGTTCTAACCTGTTGCCT (site TTCGTAGCTAG)
answer label: Criterion not met

====

- measurement protocol: recombinant UMI read abundance after kanamycin selection (control-corrected) (log10(CPM+1)); higher = more efficient recombination; extreme values may be limits of the assay; sequences stand for … in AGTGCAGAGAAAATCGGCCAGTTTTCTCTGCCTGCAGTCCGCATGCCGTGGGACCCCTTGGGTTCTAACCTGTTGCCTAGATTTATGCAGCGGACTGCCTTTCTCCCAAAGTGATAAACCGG…AGGTTGGTTTCACT; site = the 11-nt donor
Binary call on recombinant UMI read abundance (log10): true from 0.009 upward, false beneath that.

item sequence: GCCAAACCATGGACCGGTTTTCCCGGTAATCCGTATTTGGT (site GGCAAACCTAC)
answer label: false
--
item sequence: TTAGAACCATGGACCGGTTTTCCCGGTAATCCGTATTTGCA (site TTAGAACCTTG)
answer label: false
--
item sequence: GTATAGTCATGGACCGGTTTTCCCGGTAATCCGTATTTGGT (site GTATAGTCTAC)
answer label: true
--
item sequence: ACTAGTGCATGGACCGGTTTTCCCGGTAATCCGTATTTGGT (site ACTGGTGCTAC)
answer label: true
--
item sequence: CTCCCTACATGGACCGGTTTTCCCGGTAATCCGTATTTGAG (site CTCCCTACTAT)
answer label: true
--
item sequence: CGTTCGGCATGGACCGGTTTTCCCGGTAATCCGTATTTGCT (site CGTTTGGCTAG)
answer label: false
--
item sequence: GTTCGCGCATGGACCGGTTTTCCCGGTAATCCGTATTTGCA (site GTTCGGGCTTG)
answer label: false
--
item sequence: ACAGTTTCATGGACCGGTTTTCCCGGTAATCCGTATTTGCA (site ACAGTGTCTTG)
answer label: true

====

- measurement protocol: recombinant UMI read abundance after kanamycin selection (control-corrected) (log10(CPM+1)); higher = more efficient recombination; extreme values may be limits of the assay; sequences stand for … in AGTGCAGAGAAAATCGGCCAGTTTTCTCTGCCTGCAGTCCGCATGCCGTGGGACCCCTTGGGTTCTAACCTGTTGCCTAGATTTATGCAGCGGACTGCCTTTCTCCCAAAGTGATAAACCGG…AGGTTGGTTTCACT; site = the 11-nt donor
Classification by recombinant UMI read abundance (log10) follows these ranges: lo (below 0.01), med (0.01 to below 0.8), hi (0.8 or more)

item sequence: CCTAATGCATGGACCGGTTTTCCCGGTAATCCGTATTTGAT (site CCTAAGGCTAT)
answer label: lo
//
item sequence: GGCAAAACATGGACCGGTTTTCCCGGTAATCCGTATTTGTT (site GGCAAAACTAA)
answer label: med
//
item sequence: ATGAGGCCATGGACCGGTTTTCCCGGTAATCCGTATTTGAC (site ATGAGGCCTGT)
answer label: med
//
item sequence: TATGTGTCATGGACCGGTTTTCCCGGTAATCCGTATTTGAC (site TATGTGTCTGT)
answer label: hi
//
item sequence: GGTCCAACATGGACCGGTTTTCCCGGTAATCCGTATTTGTC (site GGTCCAACTTA)
answer label: med
//
item sequence: ATCTACACATGGACCGGTTTTCCCGGTAATCCGTATTTGCT (site ATCTACACTAG)
answer label: hi
//
item sequence: TTCCTGGCATGGACCGGTTTTCCCGGTAATCCGTATTTGAG (site TTCCTGGCTCT)
answer label: lo
//
item sequence: CTCACTACATGGACCGGTTTTCCCGGTAATCCGTATTTGAG (site CTCACTACTCT)
answer label: med
//
item sequence: GCGGGTGCATGGACCGGTTTTCCCGGTAATCCGTATTTGCC (site GCGGGTGCTGG)
answer label: hi
//
item sequence: AGGTTCCCATGGACCGGTTTTCCCGGTAATCCGTATTTGTT (site AGGTTCCCTGA)
answer label: lo
//
item sequence: GCCACGCCATGGACCGGTTTTCCCGGTAATCCGTATTTGTT (site GCCACGCCTCA)
answer label: med
//
item sequence: TAGAATGCATGGACCGGTTTTCCCGGTAATCCGTATTTGCA (site TAGAATCCTTG)
answer label: med
//
item sequence: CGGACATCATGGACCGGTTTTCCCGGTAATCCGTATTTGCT (site GGGACATCTAG)
answer label: lo
//
item sequence: GCAGACTCATGGACCGGTTTTCCCGGTAATCCGTATTTGTT (site GCAGACTCTAA)
answer label: hi
//
item sequence: ATGACGACATGGACCGGTTTTCCCGGTAATCCGTATTTGCA (site AGGAAGACTTG)
answer label: lo
//
item sequence: CAGGTGACATGGACCGGTTTTCCCGGTAATCCGTATTTGTA (site CAGGTGACTTA)
answer label: hi

====

- measurement protocol: recombinant UMI read abundance after kanamycin selection (control-corrected) (log10(CPM+1)); higher = more efficient recombination; extreme values may be limits of the assay; sequences stand for … in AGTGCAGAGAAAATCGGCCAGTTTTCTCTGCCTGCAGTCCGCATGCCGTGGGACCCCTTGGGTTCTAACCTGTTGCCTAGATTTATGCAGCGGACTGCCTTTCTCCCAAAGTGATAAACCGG…AGGTTGGTTTCACT; site = the 11-nt donor
Binary classification by recombinant UMI read abundance (log10), with 0.7 as an inclusive lower bound for rule met; all other cases are rule not met.

item sequence: TAATGAGCATGGACCGGTTTTCCCGGTAATCCGTATTTGTG (site TAATGAGCTCC)
answer label: rule not met
--
item sequence: TTTCGCCCATGGACCGGTTTTCCCGGTAATCCGTATTTGTG (site TTTCGCCCTCA)
answer label: rule not met
--
item sequence: GATCGGACATGGACCGGTTTTCCCGGTAATCCGTATTTGAC (site GATGGGACTGT)
answer label: rule not met
--
item sequence: CTGACGACATGGACCGGTTTTCCCGGTAATCCGTATTTGCA (site CTGACGACTTG)
answer label: rule met
